// provenance: patent US20240091200A1

pIC50: −log10 of the molar value.
Form: system (Glycolate oxidase (GO) (Homo sapiens (Human), UniProt Q9UJM8)), quantity (pIC50), values below.
property measured: pIC50

> print(dat)
                              record.smiles  result.comparator  value.reported
1  O=C(O)c1[nH]nnc1-c1ccc(-c2ccc(N3CCCC3=O)cc2)cc1                  =            6.87
2  O=C(O)c1[nH]nnc1-c1ccc(-c2ccc(-c3ncco3)cc2)cc1                  =            7.43
3  Cc1cc(-c2ccc(-c3nn[nH]c3C(=O)O)cc2)ccc1Cl                  =            7.19
4  CC(=O)N1CC=C(c2ccc(-c3nn[nH]c3C(=O)O)cc2)CC1                  =            7.05
5         O=C(O)c1[nH]cnc1-c1cc(Cl)cc(Cl)c1                  <            5.00
6  O=C(O)c1[nH]nnc1-c1ccc(-c2ccc(-c3c[nH]cn3)cc2)cc1                  =            7.62
7  O=C(O)c1[nH]nnc1-c1ccc2c(c1)[nH]c1ccccc12                  =            7.11
